B1: glmS ribozyme (parent)
chain: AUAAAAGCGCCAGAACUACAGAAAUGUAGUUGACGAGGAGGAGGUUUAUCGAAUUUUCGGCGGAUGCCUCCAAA

Variants of: B1
Assay: self-cleavage kobs at 640 uM GlcN6P; higher = faster cleavage; RNA array
Conditions: with glucosamine-6-phosphate
Fewer inactive variants are shown than the library holds.
recorded endpoint: self-cleavage kobs at 640 uM GlcN6P (s⁻¹)

>>> numeric_value("U46A U65C")
0.00029
>>> numeric_value("C11U G29U")
"7.49e-05"
>>> numeric_value("G29U G40A U45A")
0.00011
>>> numeric_value("A53U U55C")
0.00434
>>> numeric_value("A12U G66U")
0.00128
>>> numeric_value("C11U U55G")
0.000351
>>> numeric_value("A14U G29U U56G")
0.000178
>>> numeric_value("U54G G66U")
0.000509
>>> numeric_value("U55A G63U C70G")
"6.74e-05"
>>> numeric_value("C70G")
0.0014
>>> numeric_value("A42G C71U")
0.0053
>>> numeric_value("C16G C70U")
0.000455
>>> numeric_value("G37A G66A")
0.0002
>>> numeric_value("U47G U69A")
"7.46e-05"
>>> numeric_value("A39U C67A C68U")
"3.93e-05"
>>> numeric_value("G32U A53U")
0.000111
>>> numeric_value("U49G C71A")
"5.22e-05"
>>> numeric_value("C11U C67G")
0.000102
>>> numeric_value("A52U C71G")
"3.14e-05"
